System: M14
Test: NCI tumour cell line growth inhibition, 48 h
The source made the active and inactive calls. No stated cut-off is given here; in the data, active = GI50 up to about 1.1 µM and inactive = higher.
Pick one and only one: active, inactive

Look over these answered cases.
molecule: NC(=O)NC(=O)c1cccc(CNc2ccc(C(=O)N[C@@H](CCC(=O)O)C(=O)O)cc2)n1
cat: inactive

molecule: O=C(c1ccccc1)c1ccc(N2C(=O)/C(=C/c3cccc([N+](=O)[O-])c3)N=C2c2ccccc2)c(N2C(=O)/C(=C/c3cccc([N+](=O)[O-])c3)N=C2c2ccccc2)c1
cat: inactive

molecule: NC(=O)OCC(COc1ccc(Cl)cc1)OC(=O)c1ccccc1Cl (stereo unspecified)
cat: inactive

molecule: O=C/C(=C(/Br)I)c1ccccc1
cat: inactive

molecule: COc1cc(-c2nc(N)c(C#N)c3c2CCS(=O)(=O)c2ccc(C)cc2-3)cc(OC)c1OC
cat: inactive

Request: Please let me know the test result on file for CCOP(=O)(OCC)/C(C#N)=C/c1cn(C)cn1 .
Response: inactive

Request: Please answer likewise for Cc1ccc2c(n1)C(=O)c1cc(C)c(C)cc1C2=O
Response: inactive

Request: Please answer likewise for CC1(C)[C@H]2Cc3cc4nc5ccccn5c4cc3[C@@H]1C2
Response: inactive

Request: Please answer likewise for N#CC(=S)Nc1cccc(Cl)c1
Response: inactive

Request: Please answer likewise for O=C1/C(=C\c2c(-c3ccccc3)[nH]n(-c3ccccc3)c2=O)C(c2ccccc2)=NN1c1ccccc1
Response: inactive

Request: Please answer likewise for NC(=S)N/N=C(/C(=O)Nc1nc2ccc([N+](=O)[O-])cc2s1)C1C(=O)NC(=S)NC1=O
Response: inactive

Request: Please answer likewise for CCSC1=N/C(=C\c2ccco2)C(NN)=N1
Response: inactive

Request: Please answer likewise for C=CC1(C)CCC2C(=CCC3C2(C)CC(O)C(O)C3(C)COC2OC(CO)C(O)C(O)C2O)C1 (stereo unspecified)
Response: inactive

====

This listing pairs molecules with measured GI50.
System: HCC 2998
Assay: NCI tumour cell line growth inhibition, 48 h
Calls of active or inactive are those of the source. Rule as the data show it: active = GI50 up to about 1.1 µM and inactive = higher.

Some solved entries appear below for comparison.
molecule: O=C1Nc2cc(F)ccc2C1=O
metricName: GI50
measured: > 100 µM (inactive)
--
molecule: NC(=O)CCC(Nc1c2ccccc2[n+]([O-])c2ccccc12)C(=O)O (stereo unspecified)
metricName: GI50
measured: > 100 µM (inactive)
--
molecule: O=S(=O)(c1cc(Cl)ccc1Cl)n1ccnc1
metricName: GI50
measured: 15.8 µM (inactive)
--
molecule: CCN(CC)c1ccc2cc(C(=O)Nc3cccc4ccccc34)c(=N)oc2c1
metricName: GI50
measured: > 100 µM (inactive)
--
molecule: CC(=O)Nc1ccc(-c2nc3cc(Cl)ccc3o2)cc1
metricName: GI50
measured: 40.1 µM (inactive)

Request: Look at this molecule and give its reported GI50. Cc1ncc(CCl)c(CCl)c1O
Response: > 100 µM (inactive)

Request: Please answer likewise for Cc1ccc(NC(=O)C(=O)CC(=O)C2CCOC2=O)c(C)c1 (stereo unspecified)
Response: > 100 µM (inactive)

Request: Please answer likewise for N#Cc1c(N)oc(-c2cccc([N+](=O)[O-])c2)c1C#N
Response: 19.5 µM (inactive)

Request: Please answer likewise for C=C1C2CC(OC(C)=O)C3(C)C(c4ccoc4)OC(=O)[C@@H](O)[C@]13OC1C[C@H](OC(C)=O)C(C)(C)[C@H](C(O)C(=O)OC)[C@]12C (stereo partly specified)
Response: > 100 µM (inactive)

Request: Please answer likewise for SC1=NC2=C(CSC/C2=C\c2ccc(Cl)cc2)C(c2ccc(Cl)cc2)N1 (stereo unspecified)
Response: 25.4 µM (inactive)

Request: Please answer likewise for O=c1oc2c(O)c(O)cc3c(=O)oc4c(O)c(O)cc1c4c23
Response: > 10 µM (inactive)
